The measurements presented in this section are drawn from the Human Domainome abundance scans (Beltran et al. 2025).

B1: Arginine-glutamic acid dipeptide repeats protein, residues 502 to 543; numbered along this chain, Q9P2R6 (parent)
chain: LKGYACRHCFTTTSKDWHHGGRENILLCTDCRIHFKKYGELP

Variants of: B1
assay explanation: abundance fitness (aPCA) (normalised: wild type 0, dead -1); higher = more abundant; growth selection in yeast, the domain comes from the species named
settings: Homo sapiens
recorded endpoint: abundance fitness
Field format: numeric only.

Challenge: Param item = G20W ; retrieve measured abundance fitness.
Response given: -0.141

Challenge: Then this variant: R22L
Response given: -0.081

Challenge: Then this variant: T13W
Response given: -0.31

Challenge: Then this variant: K2Q
Response given: -0.107

Challenge: Then this variant: T11I
Response given: -0.204

Challenge: Then this variant: K15H
Response given: -0.041

Challenge: Then this variant: F35N
Response given: -0.245

Challenge: Then this variant: G3P
Response given: -0.189

Challenge: Then this variant: A5R
Response given: 0.012

Challenge: Then this variant: F10Q
Response given: 0.03

Challenge: Then this variant: F35K
Response given: -0.091
